Test system: OVCAR-8 ovarian
protocol-details: NCI tumour cell line growth inhibition, 48 h
Where a SMILES comes first, the peptide text is derived from it. The star is where a group is joined. Boc = CC(C)(C)OC(=O)*
property-label: TGI

Please review the entries below; each comes with its answer.
CC(NC(=O)C1CCCN1C(=O)CNC(=O)OC(C)(C)C)C(=O)O (stereo not drawn) (Boc-Gly-Pro-Ala-OH; configuration not given here) | > 100 µM
CCOc1ccc(N2C(=O)NC3(c4ccccc4)N(C)C(=O)N(C)C23c2ccccc2)cc1 (stereo not drawn) | > 100 µM

Next up:
# TGI lookup, item Clc1ccc(-c2nc3c(-c4ccccc4)nc(-c4ccccc4)cn3c2-c2ccc(Cl)cc2)cc1 > 100 µM
